test: GST conjugation activity with t-stilbene oxide (HPLC); type: biochemical; settings: 0.4 mM electrophilic substrate, 4 mM glutathione, 0.1 M MOPS pH 7.0, corrected for uncatalyzed reaction
Experimental endpoint: Activity of soybean GST enzyme, T-Stilbene Oxide

| Molecule | Endpoint value |
| --- | --- |
| se1.pk0017.f5: soybean type IV GST encoded by cDNA insert in clone se1.pk0017.f5 (protein) MASLGVRPVLPPPLTSISDPPPLFDGTTRLYISYSCPYAQRVWIARNYKGLQDKINLVPINLQDRPAWYKEKVYPENKVPSLEHNGKVLGESLDLIKYVDANFEGTPLFPSDPAKKEFGEQLISHVDTFSKDLFVSLKGDAVQQASPAFEYLENALGKFDDGPFLLGQFSLVDIAYIPFVERFQIVFAEVFKHDITEGRPKLATWFEELNKLNAYTETRVDPQEIVDLFKKRFLPQQ | 0.15 nmol/min/mg |

Entry source: patent US6168954A
